Origin of values: patent US20220127247A1

Biological target: delF508-CFTR (Homo sapiens, UniProt P13569, DEL508-508)
Construct: expressed in transfected cells
Sequence (P13569 with tags, fused parts or gaps DEL508-508): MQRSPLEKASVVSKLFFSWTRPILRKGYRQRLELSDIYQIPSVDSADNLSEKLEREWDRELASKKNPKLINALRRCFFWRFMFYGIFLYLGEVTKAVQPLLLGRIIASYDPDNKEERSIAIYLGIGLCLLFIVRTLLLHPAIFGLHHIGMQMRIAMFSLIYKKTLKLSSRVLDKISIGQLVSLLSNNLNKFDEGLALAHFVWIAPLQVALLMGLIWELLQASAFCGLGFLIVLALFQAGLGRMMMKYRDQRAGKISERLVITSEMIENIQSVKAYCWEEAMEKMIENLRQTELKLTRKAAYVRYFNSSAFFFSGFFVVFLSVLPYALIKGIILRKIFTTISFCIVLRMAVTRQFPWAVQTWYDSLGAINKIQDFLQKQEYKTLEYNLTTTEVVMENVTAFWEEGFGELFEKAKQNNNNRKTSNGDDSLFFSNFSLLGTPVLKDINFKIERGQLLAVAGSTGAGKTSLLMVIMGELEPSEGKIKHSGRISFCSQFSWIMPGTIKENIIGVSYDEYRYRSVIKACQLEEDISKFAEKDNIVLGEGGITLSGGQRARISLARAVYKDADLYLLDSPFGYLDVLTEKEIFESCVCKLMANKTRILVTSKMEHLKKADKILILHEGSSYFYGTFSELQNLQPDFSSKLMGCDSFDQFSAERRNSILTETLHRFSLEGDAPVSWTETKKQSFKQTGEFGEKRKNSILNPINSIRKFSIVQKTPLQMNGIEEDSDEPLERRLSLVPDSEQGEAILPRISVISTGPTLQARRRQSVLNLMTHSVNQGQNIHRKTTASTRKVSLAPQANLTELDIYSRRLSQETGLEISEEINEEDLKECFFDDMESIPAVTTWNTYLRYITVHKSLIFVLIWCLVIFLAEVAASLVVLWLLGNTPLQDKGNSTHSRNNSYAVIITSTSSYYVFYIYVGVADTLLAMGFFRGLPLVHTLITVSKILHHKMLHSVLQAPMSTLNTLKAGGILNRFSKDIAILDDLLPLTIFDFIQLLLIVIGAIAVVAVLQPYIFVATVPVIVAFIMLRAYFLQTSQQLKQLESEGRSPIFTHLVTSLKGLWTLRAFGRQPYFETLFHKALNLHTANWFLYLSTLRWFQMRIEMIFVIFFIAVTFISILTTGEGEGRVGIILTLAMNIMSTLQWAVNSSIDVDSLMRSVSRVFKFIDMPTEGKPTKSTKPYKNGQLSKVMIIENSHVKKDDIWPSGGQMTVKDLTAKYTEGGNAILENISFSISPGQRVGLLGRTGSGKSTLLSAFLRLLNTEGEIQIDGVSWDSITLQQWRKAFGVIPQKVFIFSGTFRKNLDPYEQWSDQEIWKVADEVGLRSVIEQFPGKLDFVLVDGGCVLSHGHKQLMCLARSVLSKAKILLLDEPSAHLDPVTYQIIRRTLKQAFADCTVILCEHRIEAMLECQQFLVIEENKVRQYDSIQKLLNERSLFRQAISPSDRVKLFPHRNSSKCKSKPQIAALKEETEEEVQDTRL
Assay: delF508-CFTR functional activity in primary human bronchial epithelial cells (HBECs), Multi-Transepithelial Clamp Circuit (MTECC-24) assay
Type: cell-based
Details: test compound added 24 h before assay, with potentiator (S)-3-amino-6-methoxy-N-(3,3,3-trifluoro-2-hydroxy-2-methylpropyl)-5-(trifluoromethyl)picolinamide; relative to 2 μM 3-(6-(1-(2,2-difluorobenzo[d][1,3]dioxol-5-yl)cyclopropane-1-carboxamido)-3-methylpyridin-2-yl)benzoic acid + 0.5 μM N-(2,4-di-tert-butyl-5-hydroxyphenyl)-4-oxo-1,4-dihydroquinoline-3-carboxamide
READOUT NAME: MTECC24-CFHBEC Amax % (%)

# COMPOUND, TESTED SYSTEM, MTECC24-CFHBEC Amax % (%)
records = [
    ("CCN(CCCC(=O)O)c1cccc(S(=O)(=O)Nc2ccc(C(F)(F)F)c(-c3cc(F)ccc3C)n2)n1", "delF508-CFTR (Homo sapiens, UniProt P13569, DEL508-508)", 146),
    ("CCCN(CCC(=O)O)c1cccc(S(=O)(=O)Nc2ccc(C(F)(F)F)c(-c3cc(F)ccc3C)n2)n1", "delF508-CFTR (Homo sapiens, UniProt P13569, DEL508-508)", 133),
    ("CCN(CCC(=O)O)c1cccc(S(=O)(=O)Nc2ccc(C(F)(F)F)c(-c3ccccc3C)n2)n1", "delF508-CFTR (Homo sapiens, UniProt P13569, DEL508-508)", 137),
    ("CCCN(CCCC(=O)O)c1cccc(S(=O)(=O)Nc2ccc(Cl)c(-c3ccccc3C)n2)n1", "delF508-CFTR (Homo sapiens, UniProt P13569, DEL508-508)", 158),
    ("Cc1ccc(F)cc1-c1nc(NS(=O)(=O)c2cccc(N3CCC[C@](C)(CC(=O)O)C3)n2)ccc1C(F)(F)F (single isomer, unassigned)", "delF508-CFTR (Homo sapiens, UniProt P13569, DEL508-508)", 155),
]
